- procedure-details: Tmax in Sprague-Dawley rat at 10 mg/kg, po
- Format: ADME, organism-based
- Design: dose 10 mg/kg, route oral
- condition-description: in vivo

{"smiles-code": "C=C(C)[C@@H]1CC[C@]2(C(=O)NCCc3ccccc3C(=O)NCCC(=O)O)CC[C@]3(C)[C@H](CC[C@@H]4[C@@]5(C)CC[C@H](OC(=O)CC(C)(C)C(=O)O)C(C)(C)[C@@H]5CC[C@]43C)[C@@H]12", "Tmax [h]": 4}

---

- procedure-details: Cytotoxicity against human MT4 cells after 4 days by cell viability assay
- Format: cell-based
- condition-description: read-out: TC50
# CC50 at 96 h per entry

{"smiles-code": "C=C(C)[C@@H]1CC[C@]2(C(=O)NCc3ccc(-c4ccccc4)cc3)CC[C@]3(C)[C@H](CC[C@@H]4[C@@]5(C)CC[C@H](OC(=O)CC(C)(C)C(=O)O)C(C)(C)[C@@H]5CC[C@]43C)[C@@H]12", "bound-sign": ">", "CC50 at 96 h (µM)": 10}
{"smiles-code": "C=C(C)[C@@H]1CC[C@]2(C(=O)NCc3cccnc3C(=O)O)CC[C@]3(C)[C@H](CC[C@@H]4[C@@]5(C)CC[C@H](OC(=O)CC(C)(C)C(=O)O)C(C)(C)[C@@H]5CC[C@]43C)[C@@H]12", "bound-sign": ">", "CC50 at 96 h (µM)": 10}
{"smiles-code": "C=C(C)[C@@H]1CC[C@]2(C(=O)NCc3nc4ccccc4[nH]3)CC[C@]3(C)[C@H](CC[C@@H]4[C@@]5(C)CC[C@H](OC(=O)CC(C)(C)C(=O)O)C(C)(C)[C@@H]5CC[C@]43C)[C@@H]12", "bound-sign": "=", "CC50 at 96 h (µM)": 8.6}
{"smiles-code": "C=C(C)[C@@H]1CC[C@]2(C(=O)NCc3ccc(C(=O)O)cc3)CC[C@]3(C)[C@H](CC[C@@H]4[C@@]5(C)CC[C@H](OC(=O)CC(C)(C)C(=O)O)C(C)(C)[C@@H]5CC[C@]43C)[C@@H]12", "bound-sign": "=", "CC50 at 96 h (µM)": 8.9}
{"smiles-code": "C=C(C)[C@@H]1CC[C@]2(C(=O)NCc3nc4ccccc4s3)CC[C@]3(C)[C@H](CC[C@@H]4[C@@]5(C)CC[C@H](OC(=O)CC(C)(C)C(=O)O)C(C)(C)[C@@H]5CC[C@]43C)[C@@H]12", "bound-sign": "=", "CC50 at 96 h (µM)": 6.8}
{"smiles-code": "C=C(C)[C@@H]1CC[C@]2(C(=O)NCc3ccc(F)cc3C(=O)O)CC[C@]3(C)[C@H](CC[C@@H]4[C@@]5(C)CC[C@H](OC(=O)CC(C)(C)C(=O)O)C(C)(C)[C@@H]5CC[C@]43C)[C@@H]12", "bound-sign": "=", "CC50 at 96 h (µM)": 3.2}
{"smiles-code": "C=C(C)[C@@H]1CC[C@]2(C(=O)NCCCc3ccc(OC)cc3)CC[C@]3(C)[C@H](CC[C@@H]4[C@@]5(C)CC[C@H](OC(=O)CC(C)(C)C(=O)O)C(C)(C)[C@@H]5CC[C@]43C)[C@@H]12", "bound-sign": "=", "CC50 at 96 h (µM)": 10}
{"smiles-code": "C=C(C)[C@@H]1CC[C@]2(C(=O)NCc3ccc4cccc(O)c4n3)CC[C@]3(C)[C@H](CC[C@@H]4[C@@]5(C)CC[C@H](OC(=O)CC(C)(C)C(=O)O)C(C)(C)[C@@H]5CC[C@]43C)[C@@H]12", "bound-sign": ">", "CC50 at 96 h (µM)": 10}
{"smiles-code": "C=C(C)[C@@H]1CC[C@]2(C(=O)NCc3ccc4ccccc4n3)CC[C@]3(C)[C@H](CC[C@@H]4[C@@]5(C)CC[C@H](OC(=O)CC(C)(C)C(=O)O)C(C)(C)[C@@H]5CC[C@]43C)[C@@H]12", "bound-sign": ">", "CC50 at 96 h (µM)": 10}
{"smiles-code": "C=C(C)[C@@H]1CC[C@]2(C(=O)NCc3ccccc3-c3ccccc3)CC[C@]3(C)[C@H](CC[C@@H]4[C@@]5(C)CC[C@H](OC(=O)CC(C)(C)C(=O)O)C(C)(C)[C@@H]5CC[C@]43C)[C@@H]12", "bound-sign": ">", "CC50 at 96 h (µM)": 10}
{"smiles-code": "C=C(C)[C@@H]1CC[C@]2(C(=O)NCc3ccc(OC)cc3)CC[C@]3(C)[C@H](CC[C@@H]4[C@@]5(C)CC[C@H](OC(=O)CC(C)(C)C(=O)O)C(C)(C)[C@@H]5CC[C@]43C)[C@@H]12", "bound-sign": ">", "CC50 at 96 h (µM)": 10}

# credit: ChEMBL document CHEMBL1141017
